- System: HCT15
- TEST METHOD NOTES: Inhibition of cancer cell growth as measured by cell number, HCT15
- Format: cell-based
- PARTICULARS: Homo sapiens, HCT-15; cell number, Sulforhodamine B, 48 hours exposure; Table 5; read-out: IC50 HCT15
So basically, if IC50 comes in under 5 µg/mL it's Criterion met, and if it's 5 µg/mL or more it's Criterion not met.

Check if IC50 falls below 5 µg/mL for `COc1cc2ncc(C#N)c(NC3CCCCC3)c2cc1OC` .
Criterion not met

IC50 strictly < 5 µg/mL for this compound? `COc1cc2ncc(C#N)c(Nc3cccc(Br)c3)c2cc1OC`
Criterion met

Determine if `CCCC(=O)Nc1ccc2ncc(C#N)c(Nc3cccc(Br)c3)c2c1` shows IC50 strictly lower than 5 µg/mL.
Criterion not met

Input `COc1cc2ncc(C#N)c(Sc3ccc(Br)cc3)c2cc1OC` ; condition: IC50 strictly below 5 µg/mL. Does it hold?
Criterion not met

# strict comparison: is reported IC50 < 5 µg/mL? input = `CC#CC(=O)Nc1ccc2ncc(C#N)c(Nc3ccc(Br)c(Br)c3)c2c1`
Criterion met

Input `CC(=O)Nc1ccc2ncc(C#N)c(Nc3cccc(Br)c3)c2c1` ; condition: IC50 strictly below 5 µg/mL. Does it hold?
Criterion met

---

- ASSAY SYSTEM: recombinant human MEK 1 (MAPKK) and recombinant human ERK2 (MAPK)
- TEST METHOD NOTES: Mitogen Activated Protein Kinase (MAPK) assay, two component coupled MEK 1 / ERK2
- PARTICULARS: separate entries for the same compound = evaluated more than one time
RECORDED METRIC: IC50

Query: IC50; subject: `CC#CC(=O)Nc1ccc2ncc(C#N)c(Nc3ccc(N(C)C)cc3)c2c1`
> 100 µM

Which IC50 is listed for `COc1cc2ncc(C#N)c(Oc3cccc(Br)c3)c2cc1OC` ?
> 100 µM

// returns reported IC50 for input `N#Cc1cnc2ccc(N)cc2c1Nc1cccc(I)c1`
> 100 µM

Any idea what IC50 was measured for `C=CC(=O)Nc1ccc2ncc(C#N)c(Nc3cccc(N(C)C)c3)c2c1` ?
> 100 µM

I have this compound here, `CN(C)CC#CC(=O)Nc1ccc2ncc(C#N)c(Nc3cccc(Br)c3)c2c1` , and I need its recorded IC50.
> 100 µM

Tell me the measured IC50 of `COc1ccc(OC)c2c(Nc3ccc(C)c(O)c3)c(C#N)cnc12` , please.
> 100 µM

Look up IC50 for this compound: `N#Cc1cnc2cc(O)c(O)cc2c1Nc1cccc(Br)c1`
40 µM

Name the recorded IC50 for `CN(C)CC=CC(=O)Nc1ccc2ncc(C#N)c(Nc3ccc(F)c(Cl)c3)c2c1` .
35 µM

What measured IC50 goes with `CCOc1cc2ncc(C#N)c(Nc3cccc(F)c3)c2cc1OCC` ?
80 µM

---

For each entry below, report its IC50 value.
- ASSAY SYSTEM: His-tagged cytoplasmic domain of EGFR (Homo sapiens, UniProt P00533)
- Construct: containing the EGFR cDNA encoding amino acids 645 - 1186 preceded by Met-Ala-(His)6; made in house; host or cells: Sf9 cells, recombinant baculovirus vHcEGFR52
- Sequence (P00533 669-1210): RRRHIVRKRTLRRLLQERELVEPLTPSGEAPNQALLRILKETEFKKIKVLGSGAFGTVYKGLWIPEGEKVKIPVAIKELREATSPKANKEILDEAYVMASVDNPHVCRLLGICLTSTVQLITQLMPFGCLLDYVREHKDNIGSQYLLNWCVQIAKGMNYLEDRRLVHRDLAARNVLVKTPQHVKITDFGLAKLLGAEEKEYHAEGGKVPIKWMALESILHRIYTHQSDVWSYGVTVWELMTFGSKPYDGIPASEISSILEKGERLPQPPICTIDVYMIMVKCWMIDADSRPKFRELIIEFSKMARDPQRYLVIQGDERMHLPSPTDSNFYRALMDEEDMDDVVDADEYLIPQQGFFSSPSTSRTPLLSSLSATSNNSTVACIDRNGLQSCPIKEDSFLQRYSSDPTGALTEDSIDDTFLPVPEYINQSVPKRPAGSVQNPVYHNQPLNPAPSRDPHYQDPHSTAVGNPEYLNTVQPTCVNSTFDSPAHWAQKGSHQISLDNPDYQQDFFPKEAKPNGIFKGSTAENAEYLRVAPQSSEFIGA
- TEST METHOD NOTES: Inhibition of Epidermal Growth Factor Receptor Kinase (EGF-R) using recombinant enzyme;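 note: radiometric kinase assay measuring radiolabeled phosphate transfer from ATP onto the peptide tyrosine by scintillation counting, control is reaction without compound, background subtracted, IC50 from dose-response curve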
- Type: biochemical
- PARTICULARS: recombinant enzyme; RR-SRC peptide; average of the number of tests; read-out: IC50
Value expressed in nM; do not type the unit.

Could you share which IC50 value was measured for `Cc1cc([N+](=O)[O-])cc2c(Nc3cccc(Br)c3)c(C#N)cnc12` ?
1

Item under review: `C=CC(=O)Nc1ccc2ncc(C#N)c(Nc3cccc(I)c3)c2c1` . Reported IC50?
40

Consider the compound shown here: `C=CC(=O)Nc1ccc2ncc(C#N)c(Nc3cccc(OC)c3)c2c1` What is its recorded IC50?
3.5

Entry under review: `C=C(CC(=O)Nc1ccc2ncc(C#N)c(Nc3cccc(Br)c3)c2c1)C(=O)O` . Reported IC50?
100

Need IC50 of `CCN(CC)CC#CC(=O)Nc1ccc2ncc(C#N)c(Nc3ccc(F)c(Cl)c3)c2c1` , thanks.
2

Requested read-out: IC50. Entry: `C#Cc1cccc(Nc2c(C#N)cnc3ccc(NC(=O)C#CCN4CCCCC4)cc23)c1`
20

Could you tell me which IC50 is on file for `CN(C)CC=CC(=O)Nc1ccc2ncc(C#N)c(Nc3ccc(F)c(Br)c3)c2c1` ?
5

# IC50 lookup, item `CCN(CC)CC=CC(=O)Nc1ccc2ncc(C#N)c(Nc3ccc(F)c(Cl)c3)c2c1`
30

Endpoint output: IC50 of `CN(C)CC=CC(=O)Nc1ccc2ncc(C#N)c(Nc3ccc(F)c(Cl)c3)c2c1` . Value?
60

Please look up its IC50: `COc1cc2ncc(C#N)c(Nc3cccc(N)c3)c2cc1OC`
500

# input compound: `N#Cc1cnc2ccc(NC(=O)C#CCO)cc2c1Nc1cccc(Br)c1` ; wanted: its IC50
0.9

Returns the measured IC50 for the input compound. Input: `CCN(CC)CC=CC(=O)Nc1ccc2ncc(C#N)c(Nc3ccc(F)c(Br)c3)c2c1`
30

Recorded IC50 of `CCN(CC)CC#CC(=O)Nc1ccc2ncc(C#N)c(Nc3cccc(Br)c3)c2c1` , please.
0.7

Need IC50, item `COCC#CC(=O)Nc1ccc2ncc(C#N)c(Nc3ccc(F)c(Cl)c3)c2c1`
1.7

Looking for the measured IC50 of `CCCN(CC#CC(=O)Nc1ccc2ncc(C#N)c(Nc3cccc(Br)c3)c2c1)CCC` , can you help?
60

What does the record list as IC50 for `C=CC(=O)Nc1ccc2ncc(C#N)c(Nc3ccc(Br)c(Br)c3)c2c1` ?
7

Which IC50 is listed for `CC(C)N(CC#CC(=O)Nc1ccc2ncc(C#N)c(Nc3cccc(Br)c3)c2c1)C(C)C` ?
0.6

---

- Tested on: HTB161
- TEST METHOD NOTES: Inhibition of cancer cell growth as measured by cell number, HTB161
- Format: cell-based
- PARTICULARS: Homo sapiens, 48 h, read-out: IC50 HTB161
RECORDED METRIC: IC50 (µg/mL)
I only need the number, in µg/mL, no unit after it.

Consider the compound shown here: `CC#CC(=O)Nc1cc2c(Nc3cccc(Br)c3)c(C#N)cnc2cc1OC` What is its recorded IC50?
98.8

# lookup: IC50 of `C=CC(=O)Nc1ccc2ncc(C#N)c(Nc3cccc(Br)c3)c2c1`
0.415

Could you share which IC50 value was measured for `COc1cc2ncc(C#N)c(Nc3cccc(Br)c3)c2cc1N` ?
2.12

I have this compound here, `COc1cc2ncc(C#N)c(Nc3cccc(C#N)c3)c2cc1OC` , and I need its recorded IC50.
4.21

Record request: IC50 value, item `COc1cc2ncc(C#N)c(Nc3ccc(F)cc3)c2cc1OC`
9.59

Value lookup for IC50; key = `CCOc1cc2ncc(C#N)c(Nc3cccc(Br)c3)c2cc1OCC`
0.00395

So what does the record say about IC50 for `N#Cc1cnc2ccc([N+](=O)[O-])cc2c1Nc1cccc(Br)c1` ?
97.1

May I ask what IC50 has been recorded for `COc1cc2ncc(C#N)c(Nc3cccc(Cl)c3)c2cc1OC` ?
7.87

Could you share which IC50 value was measured for `CC#CC(=O)Nc1ccc2ncc(C#N)c(Nc3cccc(Br)c3)c2c1` ?
33

---

- Test system: HTB161
- TEST METHOD NOTES: Inhibition of cancer cell growth as measured by cell number, HTB161
- Type: cell-based
- PARTICULARS: Homo sapiens; cell number, Sulforhodamine B, 48 hours exposure; Table 4; read-out: IC50 HTB161
RECORDED METRIC: IC50
# include the unit after the value

Please report the recorded IC50 for `CC#CC(=O)Nc1ccc2ncc(C#N)c(Nc3ccc(Br)c(Br)c3)c2c1` .
0.248 mg/L

// IC50 lookup, key: `CCCC(=O)Nc1ccc2ncc(C#N)c(Nc3cccc(Br)c3)c2c1`
7.89 mg/L

# IC50 lookup, item `COc1cc2ncc(C#N)c(Sc3ccc(Br)cc3)c2cc1OC`
4.46 mg/L

Which measured IC50 value corresponds to `CC(=O)Nc1ccc2ncc(C#N)c(Nc3cccc(Br)c3)c2c1` ?
0.667 mg/L

What does the record list as IC50 for `COc1cc2ncc(C#N)c(Nc3cccc(Br)c3)c2cc1OC` ?
0.793 mg/L

# query: IC50 of entry `COc1cc2ncc(C#N)c(NC3CCCCC3)c2cc1OC`
3.19 mg/L

---

So I've got a bunch of molecules here, and I need their log10 of IC50 values.
- ASSAY SYSTEM: recombinant human MEK 1 (MAPKK) and recombinant human ERK2 (MAPK)
- TEST METHOD NOTES: Mitogen Activated Protein Kinase (MAPK) assay, two component coupled MEK 1 / ERK2;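 note: MEK 1-activated ERK2 phosphorylates MBP or Myc peptide with 33P-ATP, filter capture and scintillation counting, inhibitor preincubated with ERK2 30 min at 0 °C, inhibition relative to uninhibited control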
- PARTICULARS: separate entries for the same compound = evaluated more than one time
In plain terms, each number is the log10 of measured IC50 in µM.

Request: log10 of IC50, test system recombinant human MEK 1 (MAPKK) and recombinant human ERK2 (MAPK), entry `COc1cc2ncc(C#N)c(Nc3cccc(SC)c3)c2cc1OC`
0.95

# get_value(readout= log10 of IC50, system= recombinant human MEK 1 (MAPKK) and recombinant human ERK2 (MAPK)) for `COc1cc2ncc(C#N)c(Nc3cccc(Cl)c3)c2cc1OC`
0.15

What log10 of IC50 appears in the records for this molecule with recombinant human MEK 1 (MAPKK) and recombinant human ERK2 (MAPK)? `COc1cc2ncc(C#N)c(NC3CCCCC3)c2cc1OC`
1.65

Lookup: log10 of IC50 / recombinant human MEK 1 (MAPKK) and recombinant human ERK2 (MAPK) / `C=CC(=O)Nc1ccc2ncc(C#N)c(Nc3ccc(N(C)C)cc3)c2c1`
1.60

Tell me reported log10 of IC50 for `CSc1cccc(Nc2c(C#N)cnc3ccc(N)cc23)c1` , tested with recombinant human MEK 1 (MAPKK) and recombinant human ERK2 (MAPK).
1.40
